Each recorded value in this set is attributed to ChEMBL document CHEMBL4316611.

system: A549; experiment: Cytotoxicity in human A549 cells assessed as reduction in cell viability incubated for 48 hrs by MTT assay; format: functional, cell-based; conditions: A549, 48 h
Below: a set of entries, each annotated with reported IC50.

Solved entries (count: 3):
C=CC[C@@H](Cc1c[nH]c2ccccc12)NS(=O)(=O)c1ccc(Cl)cc1Cl : 55.7 µM
C=CC[C@@H](Cc1c[nH]c2ccccc12)NS(=O)(=O)c1ccc(-c2ccccc2)cc1 : 33.6 µM
C=CC[C@@H](Cc1c[nH]c2ccccc12)NS(=O)(=O)c1ccc(Br)cc1Cl : 48.8 µM

## Input Entry C=CC[C@@H](Cc1c[nH]c2ccccc12)NS(=O)(=O)c1cc(F)c(Br)cc1F : reported IC50 = ?
## Output 65 µM

## Input Please report the recorded IC50 for C=CC[C@@H](Cc1c[nH]c2ccccc12)NS(=O)(=O)c1ccc(Br)c(C)c1 .
## Output 54.1 µM

## Input Requested read-out: IC50. Entry: C=CC[C@@H](Cc1c[nH]c2ccccc12)NS(=O)(=O)c1ccc(C)c(F)c1
## Output 70.2 µM

## Input Entry under review: CCC[C@H](N)Cc1c[nH]c2ccccc12 . Reported IC50?
## Output > 100 µM

## Input Can you look up the measured IC50 of CCC[C@@H](Cc1c[nH]c2ccccc12)NS(=O)(=O)c1c(C(C)C)cc(C(C)C)cc1C(C)C for me?
## Output 39.8 µM

## Input For the compound C=CC[C@H](N)Cc1c[nH]c2ccccc12 , what IC50 is on record?
## Output > 100 µM

## Input I am curious: what IC50 value has been reported for C=CC[C@@H](Cc1c[nH]c2ccccc12)NS(=O)(=O)c1c(C(C)C)cc(C(C)C)cc1C(C)C ?
## Output 18.7 µM

## Input I'd like to know its IC50. The compound in question is C=CC[C@@H](Cc1c[nH]c2ccccc12)NS(=O)(=O)c1c(C)c(C)cc(C)c1C
## Output 29.9 µM

## Input // lookup IC50 for C=CC[C@@H](Cc1c[nH]c2ccccc12)NS(=O)(=O)c1cc(Br)cc(C(F)(F)F)c1
## Output 29.3 µM

## Input Please report the recorded IC50 for C=CC[C@@H](Cc1c[nH]c2ccccc12)NS(=O)(=O)c1cccc(C(F)(F)F)c1 .
## Output 52.1 µM

## Input Quick one: IC50 for C=CC[C@@H](Cc1c[nH]c2ccccc12)NS(=O)(=O)c1ccc(C(F)(F)F)cc1 ?
## Output 49.9 µM

## Input Which value of IC50 has been reported for C=CC[C@@H](Cc1c[nH]c2ccccc12)NS(=O)(=O)c1cc(C)ccc1C in the records?
## Output 48.3 µM

## Input For the compound shown here, C=CC[C@@H](Cc1c[nH]c2ccccc12)NS(=O)(=O)c1ccccc1OC(F)(F)F , give the reported IC50.
## Output 65.9 µM

## Input GET /values?readout=IC50&item= C=CC[C@@H](Cc1c[nH]c2ccccc12)NS(=O)(=O)c1ccc(F)c(Cl)c1
## Output 41.6 µM

## Input What value of measured IC50 is listed for C=CC[C@@H](Cc1c[nH]c2ccccc12)NS(=O)(=O)c1cc(Cl)c(F)cc1F ?
## Output 50.7 µM

## Input Tell me the measured IC50 of C=CC[C@@H](Cc1c[nH]c2ccccc12)NS(=O)(=O)c1ccc(C(F)(F)F)cc1[N+](=O)[O-] , please.
## Output 74.2 µM

## Input Value lookup for IC50; key = C=CC[C@@H](Cc1c[nH]c2ccccc12)NS(=O)(=O)c1ccc(C(C)C)cc1
## Output 53 µM

## Input # lookup: IC50 of C=CC[C@@H](Cc1c[nH]c2ccccc12)NS(=O)(=O)c1ccc(F)c(C(F)(F)F)c1
## Output 38.5 µM

## Input For the compound shown here, CCC[C@@H](Cc1c[nH]c2ccccc12)NS(=O)(=O)c1ccccc1 , give the reported IC50.
## Output 91.5 µM

## Input IC50 for C=CC[C@@H](Cc1c[nH]c2ccccc12)NS(=O)(=O)c1cc(C(F)(F)F)cc(C(F)(F)F)c1 ?
## Output 35.6 µM

## Input Using the record for C=CC[C@@H](Cc1c[nH]c2ccccc12)NS(=O)(=O)c1cccc2c(N(C)C)cccc12 , report its IC50.
## Output 52.4 µM

## Input Recorded IC50 for C=CC[C@@H](Cc1c[nH]c2ccccc12)NS(=O)(=O)c1ccccc1 , please?
## Output 77.1 µM

## Input Request the reported IC50 associated with C=CC[C@@H](Cc1c[nH]c2ccccc12)NS(=O)(=O)c1ccc(Br)cc1
## Output 58.6 µM

## Input Can you share its IC50? I mean this compound: C=CC[C@@H](Cc1c[nH]c2ccccc12)NS(=O)(=O)c1ccc(OC(F)(F)F)cc1
## Output 57.8 µM

## Input Recorded IC50 of C=CC[C@@H](Cc1c[nH]c2ccccc12)NS(=O)(=O)c1cccc(Br)c1 , please.
## Output 52.1 µM

## Input Reported IC50, compound C=CC[C@@H](Cc1c[nH]c2ccccc12)NS(=O)(=O)c1ccc(C(F)(F)F)cc1Br : ____
## Output 43.9 µM
